- Test Protocol: gradient 5% acetonitrile 3 min, to 50% in 2 min, to 85% in 15 min, held 3 min, 100 µL/min
- Condition Label: column: Zorbax Extend-C18 2.1 x 50 mm; eluents: water / acetonitrile, 0.1% formic acid
Parameter Measured: RP-LC retention time (s)

[[record]]
compound = "O=S(=O)(c1ccc(-c2nnc(C3CC3)o2)o1)N1CCCCC1"
number = 853

[[record]]
compound = "Cc1ccc(CN2CCC3(CC2)CC(CC(=O)N2CCOCC2)CCO3)s1 (stereo not given)"
number = 595

[[record]]
compound = "Cc1cc(F)ccc1NC(=O)CN1C(=O)CCCc2cc(S(=O)(=O)N3CCCCC3)ccc21"
number = 959

[[record]]
compound = "Cc1noc(-c2ccc(OC3CN(C(=O)NC4CCCC4)C3)cc2)n1"
number = 801

[[record]]
compound = "COc1cccc(CNC(=O)CN2C(=O)NC(c3ccccc3Cl)C3=C2COC3=O)c1OC (stereo not given)"
number = 739


###

- Test Protocol: gradient 5% acetonitrile 3 min, to 50% in 2 min, to 85% in 15 min, held 3 min, 100 µL/min
- Condition Label: column: Zorbax Extend-C18 2.1 x 50 mm; eluents: water / acetonitrile, 0.1% formic acid
Parameter Measured: RP-LC retention time (s)

Answered cases to consult:
[[record]]
compound = "Cc1ccc(Nc2c(-c3ccc(O)cc3)nc3c(C)cccn23)cc1"
number = 676

[[record]]
compound = "O=C(Nc1ccc(F)cc1)C1CCN(C(=O)c2ncn3c2COC(c2ccccc2)C3)CC1 (centres undefined)"
number = 791

[[record]]
compound = "O=C(OCc1nc2ccccc2s1)c1ccc([N+](=O)[O-])s1"
number = 970


(I) COc1ccc(Cl)cc1NC(=O)N1CCCC(C)(C(=O)NCc2ccc(F)cc2)C1 (centres undefined)
(II) O=C(O)CCC1CCN(C(=O)c2ccccc2Cl)CC1
Between the two listed entries I and II , which has its RP-LC retention time at the higher number? Lab note: record the label of whichever item you select.
I

(P) Cc1cc(C(=O)N2CCCCC2)c2c(=O)n(Cc3nc(-c4cccs4)oc3C)c(=O)n(C)c2n1
(Q) COCCn1ccc2nc(C)c(C(=O)NCc3cccs3)cc2c1=O
Which record would sort first by descending RP-LC retention time, P or Q ? Use the label to indicate which entry you chose.
P

###

- Test Protocol: gradient 5% acetonitrile 3 min, to 50% in 2 min, to 85% in 15 min, held 3 min, 100 µL/min
- Condition Label: column: Zorbax Extend-C18 2.1 x 50 mm; eluents: water / acetonitrile, 0.1% formic acid
Parameter Measured: RP-LC retention time (s)

Examples with answers:
[[record]]
compound = "Cn1c(=O)c(N2CCN(C(=O)c3ccc(F)c(Cl)c3)CC2)nc2ccccc21"
parameter_measured = "RP-LC retention time"
unit_descriptor = "s"
number = 966

[[record]]
compound = "COc1cc(C(=O)Nc2nc3c(s2)Cc2c(Br)ccc(OC)c2-3)cc(OC)c1OC"
parameter_measured = "RP-LC retention time"
unit_descriptor = "s"
number = 1170

[[record]]
compound = "CC[C@@H](CO)NC(=O)[C@@H]1C=C2c3cccc4[nH]cc(c34)C[C@H]2N(C)C1"
parameter_measured = "RP-LC retention time"
unit_descriptor = "s"
number = 616

[[record]]
compound = "COCC(=O)N(CC(=O)N1CCc2sccc2C1COc1ccc(C)cc1)C(C)C (centres undefined)"
parameter_measured = "RP-LC retention time"
unit_descriptor = "s"
number = 867

[[record]]
compound = "NC(=O)C1CCN(Cc2nc(-c3ccc(N4CCSCC4)nc3)no2)CC1"
parameter_measured = "RP-LC retention time"
unit_descriptor = "s"
number = 597

[[record]]
compound = "CN1CCCn2cc(S(=O)(=O)Nc3cc(F)cc(F)c3)cc2C1=O"
parameter_measured = "RP-LC retention time"
unit_descriptor = "s"
number = 718

[[record]]
compound = "COc1ccc(OC)c(Nc2c(-c3ccccn3)nc3cnccn23)c1"
parameter_measured = "RP-LC retention time"
unit_descriptor = "s"
number = 744


(A) CCN1CCN(c2cc(C)c3cc(NC(=O)c4cc(-c5ccco5)nc5ccccc45)ccc3n2)CC1
(B) COC[C@@H]1OCCN(S(=O)(=O)c2cccc(F)c2)[C@H]1c1ccccc1
Name the one with the greater RP-LC retention time value, either A or B as given. Your answer should be the label of the entry you select.
B

###

- Test Protocol: gradient 5% acetonitrile 3 min, to 50% in 2 min, to 85% in 15 min, held 3 min, 100 µL/min
- Condition Label: column: Zorbax Extend-C18 2.1 x 50 mm; eluents: water / acetonitrile, 0.1% formic acid
Parameter Measured: RP-LC retention time (s)

[[record]]
molecule = "Cc1ccc(-c2cn3c(CC(=O)NC4CCC(C)CC4)csc3n2)cc1C (centres undefined)"
number = 938

[[record]]
molecule = "COc1ccc(C2(C(=O)N3[C@H]4CC[C@@H]3c3cnc(C)nc3C4)CCCCC2)cc1"
number = 812

[[record]]
molecule = "COC(=O)c1ccc(NC(=O)C2CCCN2S(=O)(=O)c2ccc(F)cc2)cc1 (centres undefined)"
number = 641

[[record]]
molecule = "CN1CCN(c2ccccc2NC(=O)C2CCCN(c3ncnc4c3nc3n4CCCCC3)C2)CC1 (centres undefined)"
number = 635

[[record]]
molecule = "COc1ccc(OC)c(CNC(=O)CN2C(=O)CSc3cccn3-c3ccccc32)c1"
number = 914

[[record]]
molecule = "COC(=O)C1=CN(c2cc(Cl)c(OC)cc2OC)c2ccccc2S1(=O)=O"
number = 903

[[record]]
molecule = "CCOC(=O)CC(=O)Nc1ccc(-c2nc(-c3cc(C)ccc3C)co2)cc1"
number = 1110


(I) Cc1cnc(-c2ccccc2)n1CCNS(=O)(=O)c1ccc2c(c1)CCC2
(II) CCc1noc(NC(C)=O)c1-c1ccc(C)c(S(=O)(=O)N2CCN(c3cc(C)ccc3C)CC2)c1
Which has the smaller recorded RP-LC retention time, I or II ? Identify your pick by its label.
I

###

- Test Protocol: gradient 5% acetonitrile 3 min, to 50% in 2 min, to 85% in 15 min, held 3 min, 100 µL/min
- Condition Label: column: Zorbax Extend-C18 2.1 x 50 mm; eluents: water / acetonitrile, 0.1% formic acid
Parameter Measured: RP-LC retention time (s)

Example cases with answers are listed next.
[[record]]
molecule = "Cc1ccc(S(=O)(=O)N2CCC(CCC(=O)NCc3ccccc3)CC2)cc1"
number = 873

[[record]]
molecule = "Cc1nn(-c2ccccc2)c(C)c1S(=O)(=O)N1CCC(C(=O)Nc2ccc(Cl)cc2F)CC1"
number = 1070

[[record]]
molecule = "O=C(c1cnccn1)N1CCC(N2C(=O)C(OCC3CC3)C23CCOCC3)CC1 (centres undefined)"
number = 607

[[record]]
molecule = "CC(C)CNC(=O)C1CCN(c2cncnc2N2CCOCC2)CC1"
number = 582

[[record]]
molecule = "COCc1cc(=O)n(CC(=O)NCc2ccc(F)cc2F)c(N)n1"
number = 603

[[record]]
molecule = "Cc1cc(=O)n2c3c(c4c(cc13)c(CN(C)C)cc(=O)n4C)OC2"
number = 601

[[record]]
molecule = "Cc1ccc(-c2noc(C(=O)N3CCCC3)n2)cc1S(=O)(=O)N1CCN(c2ncccn2)CC1"
number = 959

[[record]]
molecule = "O=C(CN1C(=O)C2CCCCN2c2ccc(S(=O)(=O)N3CCCC3)cc21)NCC1COCCO1 (centres undefined)"
number = 736

[[record]]
molecule = "O=C(NCCN1CCCCC1)C1CCN(c2nc3cccnc3s2)CC1"
number = 581

[[record]]
molecule = "CCOC(=O)c1[nH]c(C)c(CCC(=O)N2CCC(C(=O)NCc3ccc(Cl)cc3)CC2)c1C"
number = 828


(A) CS(=O)(=O)N1CCC(OC2CCN(C(=O)Nc3ccccc3C(F)(F)F)CC2)CC1
(B) CCCCN1C(=O)c2cc(S(=O)(=O)N3CCc4ccccc43)ccc2Oc2cccnc21
# return whichever of A and B has the smaller RP-LC retention time Select an item and report its label.
A

###

- Test Protocol: gradient 5% acetonitrile 3 min, to 50% in 2 min, to 85% in 15 min, held 3 min, 100 µL/min
- Condition Label: column: Zorbax Extend-C18 2.1 x 50 mm; eluents: water / acetonitrile, 0.1% formic acid
Parameter Measured: RP-LC retention time (s)

[[record]]
molecule = "COc1ccc(-c2ccnc3nc(CC(C)C)nn23)cc1"
parameter_measured = "RP-LC retention time"
number = 905


(I) Cc1ccc(CN2N=C(C(=O)N3CCC(C)CC3)S(=O)(=O)c3ccccc32)cc1
(II) CCOCC(=O)Nc1ccc2c(c1)Sc1ncccc1C(=O)N2CC
Which value of RP-LC retention time is greater, the one for I or the one for II ? Answer format: the label of the selected item.
I

(I) CCOc1ccc(S(=O)(=O)N2CCCC(C(=O)NCc3ccccn3)C2)cc1 (configuration not stated)
(II) Cc1ccc(-c2noc(C3CCCN3C(=O)C3CC(=O)N(c4ccc(C)c(C)c4)C3)n2)cc1 (configuration not stated)
Return label of the item with the larger RP-LC retention time. Candidates: I , II . Record your answer as the label of the chosen record.
II
(II: 1050 s, I: 623 s)
